Where do these numbers come from? They come from patent US20240158446A1.

Kindly state pKd for each of the entries shown.
ASSAY SYSTEM: GDP-bound KRAS wild-type protein (Homo sapiens)
Sequence (P01116 whole entry): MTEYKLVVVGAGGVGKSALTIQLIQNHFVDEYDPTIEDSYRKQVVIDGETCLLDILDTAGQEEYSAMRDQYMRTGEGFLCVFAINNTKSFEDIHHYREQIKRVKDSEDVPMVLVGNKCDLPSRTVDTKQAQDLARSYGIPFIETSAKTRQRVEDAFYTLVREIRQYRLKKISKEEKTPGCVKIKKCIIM
TEST METHOD NOTES: Binding to KRAS by surface plasmon resonance (SPR), Single Cycle Kinetics
CONDITION SET: SPR Single Cycle Kinetics, GDP-bound KRAS wild-type protein, 1:1 binding model; read-out: KRAS KD
Where a SMILES comes first, the peptide text is derived from it. Bridges are numbered along the chain shown (N, C = ends). [ ]: non-standard residue; d: D form. The star is where a group is joined. hPhe(3-Cl-4-CF3) = N[C@@H](CCc1ccc(C(F)(F)F)c(Cl)c1)C(=O)O; NPrPhe(4-CF3) = CCCN[C@@H](Cc1ccc(C(F)(F)F)cc1)C(=O)O; NPrPhe(4-Me) = CCCN[C@@H](Cc1ccc(C)cc1)C(=O)O; NMePhe(4-F) = CN[C@@H](Cc1ccc(F)cc1)C(=O)O; NMeGly(cPent) = CN[C@H](C(=O)O)C1CCCC1; cisHyp = O=C(O)[C@@H]1C[C@H](O)CN1; NMeD = CN[C@@H](CC(=O)O)C(=O)O; NMeL = CN[C@@H](CC(C)C)C(=O)O; Morpholide = C1CN(*)CCO1; NMeA = CN[C@@H](C)C(=O)O; Ac5c = NC1(C(=O)O)CCCC1; Aze = O=C(O)[C@@H]1CCN1; NEtG = CCNCC(=O)O; Sar = CNCC(=O)O
Just the number, please; pKd means minus log10 of the concentration in mol/L.

Exercise: Given CC[C@H](C)[C@@H]1NC(=O)[C@H](CC(C)C)N(C)C(=O)C[C@@H](C(=O)N(C)C)N(C)C(=O)[C@H](C2CCCC2)N(C)C(=O)C2(CCC2)NC(=O)[C@@H]2CC(F)(F)CN2C(=O)[C@H](CCc2cc(F)c(C(F)(F)F)c(F)c2)NC(=O)CN(C)C(=O)[C@H](Cc2ccc(C(F)(F)F)cc2)N2CCCCC[C@@H](C2=O)N(C)C(=O)CN(C)C1=O , state its recorded pKd.
Key: 9.70

Exercise: Try the compound CCCN1C(=O)CN(C)C(=O)CN(C)C(=O)[C@H]([C@@H](C)CC)NC(=O)[C@H](CC(C)C)N(C)C(=O)C[C@@H](C(=O)N2CCOCC2)N(C)C(=O)[C@H](C2CCCC2)N(C)C(=O)C2(CCCC2)NC(=O)[C@@H]2C[C@H](O)CN2C(=O)[C@H](CCc2ccc(C(F)(F)F)c(Cl)c2)NC(=O)CN(C)C(=O)[C@@H]1Cc1ccc(C(F)(F)F)cc1 [PP0240] ([NMeL]I[Sar][Sar][NPrPhe(4-CF3)][Sar][hPhe(3-Cl-4-CF3)][cisHyp][Ac5c][NMeGly(cPent)][NMeD]-Morpholide; lactam N-11)
Key: 10.46

Exercise: Try the compound CCO[C@@H]1C[C@H]2C(=O)NC3(CCC3)C(=O)N(C)[C@@H](C3CCCC3)C(=O)N(C)[C@H](C(=O)N(C)C)CC(=O)N(C)[C@@H](CC3CC3)C(=O)N[C@@H]([C@@H](C)CC)C(=O)N(C)CC(=O)N(C)[C@H]3CCCCCN(C3=O)[C@@H](Cc3ccc(C(F)(F)F)cc3)C(=O)N(C)CC(=O)N[C@@H](CCc3cc(F)c(C(F)(F)F)c(F)c3)C(=O)N2C1
Key: 9.57

Exercise: Try the compound CCC[C@H]1C(=O)N[C@@H]([C@@H](C)CC)C(=O)N2C[C@@H](OC)C[C@H]2C(=O)N(C)[C@H]2C/C=C\CCN(C2=O)[C@@H](Cc2ccc(C)cc2)C(=O)N(C)CC(=O)N[C@@H](CCc2cc(F)c(C(F)(F)F)c(F)c2)C(=O)N2C[C@H](OCC)C[C@H]2C(=O)NC2(CCC2)C(=O)N(C)[C@@H](C2CCCC2)C(=O)N(C)[C@H](C(=O)N(C)C)CC(=O)N1C
Key: 9.54

Exercise: Try the compound CCCN1C(=O)[C@@H]2CCN2C(=O)CN(C)C(=O)[C@H]([C@@H](C)CC)NC(=O)[C@H](CC(C)C)N(C)C(=O)C[C@@H](C(=O)N(C)C)NC(=O)[C@H](C2CCCC2)N(C)C(=O)C2(CCCC2)NC(=O)[C@@H]2CCCN2C(=O)[C@H](CCc2ccc(C(F)(F)F)c(Cl)c2)NC(=O)CN(C)C(=O)[C@@H]1Cc1ccc(C(F)(F)F)cc1 [PP0385] ([NMeL]I[Sar][Aze][NPrPhe(4-CF3)][Sar][hPhe(3-Cl-4-CF3)]P[Ac5c][NMeGly(cPent)]D-NMe2; lactam N-11)
Key: 9.43

Exercise: Try the compound CCCN1C(=O)[C@@H]2CCN2C(=O)[C@H](C)N(C)C(=O)[C@H]([C@@H](C)CC)NC(=O)[C@H](CC(C)C)N(C)C(=O)C[C@@H](C(=O)N2CCOCC2)NC(=O)[C@H](C2CCCC2)N(C)C(=O)C2(CCCC2)NC(=O)[C@@H]2CCCN2C(=O)[C@H](CCc2ccc(C(F)(F)F)c(Cl)c2)NC(=O)CN(C)C(=O)[C@@H]1Cc1ccc(C(F)(F)F)cc1 [PP0343] ([NMeL]I[NMeA][Aze][NPrPhe(4-CF3)][Sar][hPhe(3-Cl-4-CF3)]P[Ac5c][NMeGly(cPent)]D-Morpholide; lactam N-11)
Key: 8.89

Exercise: Try the compound CCC[C@H]1C(=O)N[C@@H]([C@@H](C)CC)C(=O)N(C2CC2)CC(=O)N(C)[C@H]2C/C=C\CCN(C2=O)[C@@H](Cc2ccc(C(F)(F)F)cc2)C(=O)N(C)CC(=O)N[C@@H](CCc2cc(F)c(C(F)(F)F)c(F)c2)C(=O)N2C[C@H](OCC)C[C@H]2C(=O)NC2(CC(C)(C)C2)C(=O)N(C)[C@@H](CC2CC2)C(=O)N(C)[C@H](C(=O)N(C)C)CC(=O)N1C
Key: 8.77

Exercise: Try the compound CC[C@H](C)[C@@H]1NC(=O)[C@H](CC(C)C)N(C)C(=O)C[C@@H](C(=O)N2CCOCC2)N(C)C(=O)[C@H](C2CCCC2)N(C)C(=O)C2(CCCC2)NC(=O)[C@@H]2CCCN2C(=O)[C@H](CCc2ccc(C(F)(F)F)c(Cl)c2)NC(=O)CN(C)C(=O)[C@H](Cc2ccc(F)cc2)N(C)C(=O)CN(C)C(=O)CN(C)C1=O [PP0212] ([NMeL]I[Sar][Sar][NMePhe(4-F)][Sar][hPhe(3-Cl-4-CF3)]P[Ac5c][NMeGly(cPent)][NMeD]-Morpholide; lactam N-11)
Key: 10.01

Exercise: Try the compound CCO[C@@H]1C[C@H]2C(=O)NC3(CCC3)C(=O)N(C)[C@@H](C3CCCC3)C(=O)N(C)[C@H](C(=O)N(C)C)CC(=O)N(C)[C@@H](CC)C(=O)N[C@@H]([C@@H](C)CC)C(=O)N(C)CC(=O)N(C)[C@H]3CCCCCN(C3=O)[C@@H](Cc3ccc(C(F)(F)F)cc3)C(=O)N(C)CC(=O)N[C@@H](CCc3cc(F)c(C(F)(F)F)c(F)c3)C(=O)N2C1
Key: 9.55

Exercise: Try the compound CCCN1C(=O)CN(CC)C(=O)CN(C)C(=O)[C@H]([C@@H](C)CC)NC(=O)[C@H](CC(C)C)N(C)C(=O)C[C@@H](C(=O)N2CCOCC2)N(C)C(=O)[C@H](C2CCCC2)N(C)C(=O)C2(CCCC2)NC(=O)[C@@H]2CCCN2C(=O)[C@H](CCc2ccc(C(F)(F)F)c(Cl)c2)NC(=O)CN(CC)C(=O)[C@@H]1Cc1ccc(C)cc1 [PP0069] ([NMeL]I[Sar][NEtG][NPrPhe(4-Me)][NEtG][hPhe(3-Cl-4-CF3)]P[Ac5c][NMeGly(cPent)][NMeD]-Morpholide; lactam N-11)
Key: 8.16
